molecular target: purified human platelet fibrinogen receptor (GPIIb/IIIa) (Homo sapiens, UniProt P05106+P08514); construct: is isolated from human platelet lysates; from tissue; assay: Test (b): GPIIb/IIIa ELISA, inhibition of biotinylated fibrinogen binding; settings: Test (b): pIC50 (-log(IC50)), 50% inhibition of biotinylated fibrinogen binding to GPIIb/IIIa, purified human platelet GPIIb/IIIa, ELISA
Assignment: determine reported IC50 for the given molecules.
Lab book: enter the figure in nM, no units written.

Reported IC50 of CC(C(=O)c1ccc(OCC(=O)O)c(OCC(=O)O)c1)N1CCN(c2ccncc2)CC1 (centres unmarked) : 3.16

Measured IC50, CC(C(=O)c1ccc(OCC(=O)O)cc1)N1CCN(c2ccncc2)CC1 (racemic) [Example 17, dihydrate] : 20

get_value(item= COC(=O)COc1ccc(C(=O)C(C)N2CCN(c3ccncc3)CC2)cc1 (racemic) , readout=IC50) returns 200

Lab book: IC50 of "CN(CC(=O)O)C(=O)c1ccc(N2CCN(c3ccncc3)CC2)cc1" noted as 316

For reference, reported IC50 for COC(=O)COc1ccc2c(c1)CCC(N1CCN(c3ccncc3)CC1)C2=O (centres unmarked) stands at 398

---

biological target: purified human platelet fibrinogen receptor (GPIIb/IIIa) (Homo sapiens, UniProt P05106+P08514); construct: is isolated from human platelet lysates; from tissue; test: Test (b): GPIIb/IIIa ELISA, inhibition of biotinylated fibrinogen binding; settings: purified human platelet GPIIb/IIIa, ELISA; read-out: Test (b): pIC50 (-log(IC50)), 50% inhibition of biotinylated fibrinogen binding to GPIIb/IIIa (converted)
Where a name gives a salt, the structure may show the parent alone.
reported_endpoint: IC50 (nM)
Dear colleague, please return just the value in nM, with no unit written.

Entry "O=C(CN1CCN(c2ccncc2)CC1)c1ccc(OCc2nnn[nH]2)cc1" — recorded IC50 = 31600

The compound "CS(=O)(=O)N[C@@H](Cc1ccc(OCCC2CCN(c3ccncc3)CC2)cc1)C(=O)O" showed IC50 equal to 2.51

Per the records, this compound ( Cc1cc(N2CCN(CC(=O)c3ccc(OCC(=O)O)cc3)CC2)cc(C)n1 [Example 154, dihydrobromide] ) has IC50 equal to 2510

Per the record, "O=C(O)C=Cc1ccc(CN2CCN(c3ccncc3)CC2)cc1" has IC50 of 501

Reported IC50 of "COC(=O)c1cc2cc(C(=O)CN3CCN(c4ccncc4)CC3)ccc2o1" : 15800

Noted for O=C(O)CO[C@@H]1CCN(C(=O)CN2CCN(c3ccncc3)CC2)C[C@H]1OCC(=O)O (relative stereo) : its IC50 reads 251

The reported value for "COC(=O)COc1ccc(OCC2CCN(c3ccncc3)CC2)cc1" in terms of IC50 is 79.4

---

Please go through the items and note down their log10 Kb.
target: human, citrated, platelet-rich plasma (Homo sapiens, UniProt P05106+P08514); construct: aggregating human, citrated, platelet-rich plasma; endogenous in cells; host or cells: human platelets in citrated platelet-rich plasma; assay: Test (a): inhibition of ADP stimulated platelet aggregation (Born); type: cell-based; settings: ADP induced aggregation of human platelet-rich plasma; read-out: Test (a): pA2 value indicating potency of platelet aggregation inhibition (converted)
Sequence (P08514 32-887 limits assumed): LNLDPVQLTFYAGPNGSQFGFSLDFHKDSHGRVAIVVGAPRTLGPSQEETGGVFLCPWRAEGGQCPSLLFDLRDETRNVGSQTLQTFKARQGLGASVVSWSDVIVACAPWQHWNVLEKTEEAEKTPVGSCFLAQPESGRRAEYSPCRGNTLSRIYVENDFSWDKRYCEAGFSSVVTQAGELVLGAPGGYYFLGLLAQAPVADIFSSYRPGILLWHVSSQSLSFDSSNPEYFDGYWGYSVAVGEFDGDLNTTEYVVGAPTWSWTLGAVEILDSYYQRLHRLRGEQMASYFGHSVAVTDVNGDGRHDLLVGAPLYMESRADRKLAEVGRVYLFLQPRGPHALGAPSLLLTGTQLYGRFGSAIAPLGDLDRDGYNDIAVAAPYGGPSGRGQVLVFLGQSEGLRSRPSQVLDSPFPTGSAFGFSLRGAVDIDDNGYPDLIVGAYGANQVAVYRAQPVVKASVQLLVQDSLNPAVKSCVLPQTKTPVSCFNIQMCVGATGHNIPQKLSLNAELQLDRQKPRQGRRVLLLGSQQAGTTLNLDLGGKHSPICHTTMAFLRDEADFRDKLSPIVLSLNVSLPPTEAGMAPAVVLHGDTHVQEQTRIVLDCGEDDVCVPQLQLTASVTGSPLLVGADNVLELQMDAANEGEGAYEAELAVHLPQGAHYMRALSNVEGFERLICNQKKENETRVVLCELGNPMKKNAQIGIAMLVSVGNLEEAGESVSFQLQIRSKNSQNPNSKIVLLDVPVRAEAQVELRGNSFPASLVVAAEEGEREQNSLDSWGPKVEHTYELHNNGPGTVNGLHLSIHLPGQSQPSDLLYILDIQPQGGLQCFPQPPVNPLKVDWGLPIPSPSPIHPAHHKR
Sequence (P08514 891-1039 limits assumed): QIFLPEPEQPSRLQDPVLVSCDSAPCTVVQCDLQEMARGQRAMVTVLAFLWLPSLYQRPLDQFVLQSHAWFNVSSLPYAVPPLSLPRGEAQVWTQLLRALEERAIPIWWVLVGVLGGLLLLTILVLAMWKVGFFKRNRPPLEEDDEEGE
Sequence (P05106 27-788): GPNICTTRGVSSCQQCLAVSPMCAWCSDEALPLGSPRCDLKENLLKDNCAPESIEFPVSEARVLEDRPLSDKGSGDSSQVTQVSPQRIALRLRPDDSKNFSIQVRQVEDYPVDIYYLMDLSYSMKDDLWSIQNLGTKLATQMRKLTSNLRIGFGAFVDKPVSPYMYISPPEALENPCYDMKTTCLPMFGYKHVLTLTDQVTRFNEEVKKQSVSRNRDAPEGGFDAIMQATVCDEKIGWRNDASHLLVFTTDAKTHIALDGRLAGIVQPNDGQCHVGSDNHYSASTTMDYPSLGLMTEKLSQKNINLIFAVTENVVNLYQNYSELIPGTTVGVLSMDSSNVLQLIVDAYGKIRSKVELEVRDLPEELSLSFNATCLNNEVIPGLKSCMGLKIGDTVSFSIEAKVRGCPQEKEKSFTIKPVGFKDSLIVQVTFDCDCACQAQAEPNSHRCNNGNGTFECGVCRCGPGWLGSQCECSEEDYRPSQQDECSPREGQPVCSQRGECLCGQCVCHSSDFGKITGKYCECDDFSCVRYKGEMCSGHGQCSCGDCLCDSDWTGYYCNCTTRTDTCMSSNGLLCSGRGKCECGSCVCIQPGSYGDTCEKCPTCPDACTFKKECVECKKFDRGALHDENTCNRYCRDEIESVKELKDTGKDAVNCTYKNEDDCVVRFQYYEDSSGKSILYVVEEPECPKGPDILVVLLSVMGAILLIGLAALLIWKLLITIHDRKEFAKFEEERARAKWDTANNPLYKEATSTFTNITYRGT
Counter-ions that a name gives are not always drawn.
All values: log10 Kb [µM].

Form: item NC(=O)COc1ccc(C(=O)CN2CCN(c3ccncc3)CC2)cc1 [Example 142] ; test system human, citrated, platelet-rich plasma (Homo sapiens, UniProt P05106+P08514); log10 Kb: 0.70

Known value: human, citrated, platelet-rich plasma (Homo sapiens, UniProt P05106+P08514) log10 Kb of the compound O=C(O)COc1ccc(C(=O)CN2CCN(c3ccnc4c3CCCC4)CC2)cc1 [Example 46] equals 0.00

Form field log10 Kb for item O=C(O)COc1ccc2c(=O)c(N3CCN(c4ccncc4)CC3)cn(Cc3ccccc3)c2c1 [Example 49, trifluoroacetate salt] on human, citrated, platelet-rich plasma (Homo sapiens, UniProt P05106+P08514): -1.10

Reading of log10 Kb for Cc1ccc(S(=O)(=O)NCC2CCN(C(=O)CN3CCN(c4ccncc4)CC3)CC2)cc1 [Example 222] with human, citrated, platelet-rich plasma (Homo sapiens, UniProt P05106+P08514): -0.50

Recorded log10 Kb for COC(=O)COc1ccc(C(=O)CN2CCN(c3ccncc3)CC2)c2ccccc12 [Example 117] on human, citrated, platelet-rich plasma (Homo sapiens, UniProt P05106+P08514) was 1.10

COC(=O)CCc1ccc(OCC2CCN(c3ccncc3)CC2)cc1 [Example 161] on human, citrated, platelet-rich plasma (Homo sapiens, UniProt P05106+P08514) gives log10 Kb = 1.10

Note to self: log10 Kb of O=C(O)c1ccc(C(=O)CN2CCN(c3ccncc3)CC2)cc1 [Example 132] with human, citrated, platelet-rich plasma (Homo sapiens, UniProt P05106+P08514) was 1.80

human, citrated, platelet-rich plasma (Homo sapiens, UniProt P05106+P08514) assay, compound CCCCS(=O)(=O)NCc1ccc(NC(=O)C2CCN(c3ccncc3)CC2)cc1 [Example 170] , recorded log10 Kb = 1.20

---

biological target: purified human platelet fibrinogen receptor (GPIIb/IIIa) (Homo sapiens, UniProt P05106+P08514); construct: is isolated from human platelet lysates; from tissue; assay: Test (b): GPIIb/IIIa ELISA, inhibition of biotinylated fibrinogen binding; conditions: purified human platelet GPIIb/IIIa, ELISA; read-out: Test (b): pIC50 (-log(IC50)), 50% inhibition of biotinylated fibrinogen binding to GPIIb/IIIa (converted)
Counter-ions that a name gives are not always drawn.
Kindly state IC50 for each of the entries shown.
State just the number; it will be interpreted in nM.

Measured IC50 of "O=C(O)C1CCN(C(=O)c2ccc(N3CCN(c4ccncc4)CC3)cc2)CC1" : 200

For this compound ( CC(C)(C)OC(=O)COC1CCCN(C(=O)CN2CCN(c3ccncc3)CC2)C1 (stereo not shown) ), measured IC50 is 7940

Record COC(=O)COc1ccc(NC(=O)C2CCN(c3ccncc3)CC2)cc1 [Example 163, hydrochloride] , field IC50: 251

// IC50 value for O=C(O)COc1ccc(CC(=O)N2CCN(c3ccncc3)CC2)cc1 [Example 150, dihydrochloride] : 316

---

biological target: human, citrated, platelet-rich plasma (Homo sapiens, UniProt P05106+P08514); construct: aggregating human, citrated, platelet-rich plasma; endogenous in cells; host or cells: human platelets in citrated platelet-rich plasma; experiment: Test (a): inhibition of ADP stimulated platelet aggregation (Born); assay type: cell-based; details: ADP induced aggregation of human platelet-rich plasma; read-out: Test (a): pA2 value indicating potency of platelet aggregation inhibition (converted)
Where a name gives a salt, the structure may show the parent alone.
Assignment: determine reported Kb for the given compounds.
Answer shape: numeric part, then the unit.

Entry under test: O=C(O)COc1ccc(C(=O)CN2CCN(c3ccncc3)CC2)c(OCC(=O)O)c1 [Example 129, dihydrochloride] . Its Kb was 12.6 nM

// "O=C(O)CSc1ccc(C(=O)CN2CCN(c3ccncc3)CC2)cc1" : Kb value = 2000 nM

Recorded Kb (compound "CCCCS(=O)(=O)N[C@@H](Cc1ccc(OCC2CCN(c3ccncc3)CC2)cc1)C(=O)OC" ): 398 nM

Note to self: Kb recorded for "CCCCS(=O)(=O)N[C@@H](Cc1ccc(OCCCN(C)c2ccncc2)cc1)C(=O)OC" was 10000 nM

Lab book: Kb of "CCOC(=O)CCCCCOc1ccc(Nc2ccncc2)cc1" noted as 15800 nM

Kb reading for "O=C(O)CCC1CCN(C(=O)CN2CCN(c3ccncc3)CC2)CC1" : 316 nM

Summary for this compound, C[C@@H](COc1ccc(N2CCN(c3ccncc3)CC2)cc1)CC(=O)O.Cl [Example 246, hydrochloride] : Kb is 50.1 nM

response.value for CCCCS(=O)(=O)NC(CCOc1ccc(N2CCN(c3ccncc3)CC2)cc1)C(=O)OC (racemic) (field: Kb) = 1000 nM

---

Molecular target: human, citrated, platelet-rich plasma (Homo sapiens, UniProt P05106+P08514)
Construct: aggregating human, citrated, platelet-rich plasma; endogenous in cells; host or cells: human platelets in citrated platelet-rich plasma
Test: Test (a): inhibition of ADP stimulated platelet aggregation (Born)
Assay type: cell-based
Conditions: ADP induced aggregation of human platelet-rich plasma; read-out: Test (a): pA2 value indicating potency of platelet aggregation inhibition (converted)
Text: (i) aggregating human, citrated, platelet-rich plasma by addition of adenosine diphosphate so as to generate a dose-response curve; (ii) generating a dose-response curve for ADP stimulated platelet aggregation in the presence of increasing amounts of a test compound (generally in the range 10-^5 M to 10-^10 M); and […]
For each entry below, report its log10 Kb value.
The common logarithm of Kb in nM is what is listed.

log10 Kb measured on "COC(=O)COc1cccc(C(=O)CN2CCN(c3ccncc3)CC2)c1" = 4.50

Sure, the documented log10 Kb for "COC(=O)COc1ccc(C(=O)CN2CCN(c3ccnc(C)c3)CC2)cc1" is 2.80

GET /value?item= "CC(C)(C)OC(=O)COC1CCN(C(=O)CN2CCN(c3ccncc3)CC2)CC1" &field=log10 Kb returns 4.20

Lookup result for "CCCCS(=O)(=O)N[C@H](Cc1ccc(OCC2CCN(c3ccncc3)CC2)cc1)C(=O)O" ; measured log10 Kb: 2.70

Kindly note the recorded log10 Kb for "O=C(O)COc1ccc(NC(=O)N2CCN(c3ccncc3)CC2)cc1" , which is 1.50

Lab note: "O=C(O)CCc1ccc(C(=O)CN2CCN(c3ccncc3)CC2)cc1" gave log10 Kb of 2.70

For COC(=O)CC(NC(=O)c1ccc(N2CCN(c3ccncc3)CC2)cc1)c1ccccc1 (stereo not drawn) the molecule record lists log10 Kb as 3.50

// log10 Kb lookup, molecule = "C=CCc1cc(N2CCN(c3ccncc3)CC2)ccc1OCCCC(=O)OCC" , result: 2.40

Sure, the documented log10 Kb for "COC(=O)[C@H](Cc1ccc(OCCC2CCN(c3ccncc3)CC2)cc1)NS(C)(=O)=O" is 3.20
